biological target: JNK1 (Homo sapiens); experiment: KINOMEscan competition binding assay, JNK1; design: M1/Q384; host or cells: HEK-293; settings: ratio PoC (off-target)/PoC (MKK4)
Sequence (P45983 1-384 isoform P45983-2): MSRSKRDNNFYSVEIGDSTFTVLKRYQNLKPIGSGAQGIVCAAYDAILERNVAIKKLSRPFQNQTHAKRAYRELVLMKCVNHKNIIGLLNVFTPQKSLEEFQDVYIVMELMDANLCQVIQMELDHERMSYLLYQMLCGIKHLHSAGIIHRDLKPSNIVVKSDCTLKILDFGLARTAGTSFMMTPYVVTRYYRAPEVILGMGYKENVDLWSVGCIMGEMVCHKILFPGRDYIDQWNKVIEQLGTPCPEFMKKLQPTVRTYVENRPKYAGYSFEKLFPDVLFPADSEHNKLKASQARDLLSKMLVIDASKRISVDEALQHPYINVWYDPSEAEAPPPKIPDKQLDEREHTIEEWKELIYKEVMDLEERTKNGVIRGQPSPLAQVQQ
READOUT_KIND: selectivity based on % Ctrl @100 nM vs. JNK1

Study these solved cases before continuing.
>>> result("CCCS(=O)(=O)Nc1ccc(F)c(C(=O)c2c[nH]c3ncc(-c4nc[nH]n4)cc23)c1F")
"++ (100 ≥ ratio > 10)"
>>> result("COc1ccc(-c2cnc3[nH]cc(C(=O)c4cccc(NS(=O)(=O)Cc5ccccc5)c4F)c3c2)c(Cl)c1")
"++ (100 ≥ ratio > 10)"
>>> result("O=C(c1ccc(F)c(NS(=O)(=O)CCC(F)(F)F)c1F)c1c[nH]c2ncc(-c3cnc(N4CCC4)nc3)cc12")
"+++ (Ratio > 100)"
>>> result("CCCS(=O)(=O)Nc1ccc(F)c(C(=O)c2c[nH]c3ncc(-c4ccc(C(=O)O)cc4)cc23)c1F")
"+++ (Ratio > 100)"
>>> result("CCCS(=O)(=O)Nc1ccc(F)c(C(=O)c2c[nH]c3ncc(-c4ccc(C(F)(F)F)cc4)cc23)c1F")
"+ (10 ≥ ratio > 3)"
>>> result("C=Cc1ccc(-c2cnc3[nH]cc(C(=O)c4ccc(F)c(NS(=O)(=O)CCC)c4F)c3c2)cn1")
"+++ (Ratio > 100)"
>>> result("O=C(c1c(F)ccc(NS(=O)(=O)Cc2ccccc2)c1F)c1c[nH]c2ncc(-c3ccc(F)cc3)cc12")
"++ (100 ≥ ratio > 10)"
>>> result("CCCS(=O)(=O)Nc1ccc(F)c(C(=O)c2c[nH]c3ncc(-c4ccc(OCC5COC(C)(C)O5)cc4Cl)cc23)c1F (centres unmarked)")
"+ (10 ≥ ratio > 3)"

# selectivity based on % Ctrl @100 nM vs. JNK1 of CCCS(=O)(=O)Nc1ccc(F)c(C(=O)c2c[nH]c3ncc(-c4ccc(C(N)=O)cc4)cc23)c1F = +++ (Ratio > 100)

# selectivity based on % Ctrl @100 nM vs. JNK1 of O=C(c1cccc(NS(=O)(=O)Cc2ccccc2)c1F)c1c[nH]c2ncc(-c3cc4c(cc3Cl)OCO4)cc12 = ++ (100 ≥ ratio > 10)

Origin of the recorded values: patent US11912701B2
